assay: Oral bioavailability in dog; type: ADME, organism-based, Canis lupus familiaris; conditions: in vivo
Result Type: bioavailability (%)
Numbers only, in %.

Q: Which bioavailability value belongs to Oc1c2c(nc3ccccc13)[C@@H](c1ccc3c(c1)CCO3)N(c1ccccn1)C2 ?
Ans: 69

---

system: RFL-6; assay: Ratio of inhibitory constant against phosphodiesterase 4 and phosphodiesterase 5 in rat fetal lung fibroblast (RFL-6) cells; format: cell-based
Result Type: Selectivity

- Molecule: "Oc1c2c(nc3ccccc13)C(c1ccc3c(c1)CCO3)N(c1ccc(-c3ccccn3)cn1)C2 (stereo not drawn)"
  Selectivity: "> 2500"
- Molecule: "Oc1c2c(nc3ccccc13)[C@@H](c1ccc3c(c1)CCO3)N(c1ncc(-c3ccccn3)cn1)C2"
  Selectivity: "> 2500"

Proceed to the following item.
Q: Which Selectivity value belongs to Oc1c2c(nc3ccccc13)[C@@H](c1ccc3c(c1)CCO3)N(c1ccccn1)C2 ?
Ans: > 2500

---

test system: RFL-6; assay: Ratio of inhibitory constant against phosphodiesterase 4 and phosphodiesterase 5 in rat fetal lung fibroblast (RFL-6) cells; type: cell-based
Result Type: Selectivity

// input: 4 compounds below; output: Selectivity for each
1. Oc1c2c(nc3ccccc13)C(c1ccc3c(c1)CCO3)N(c1ccccn1)C2 (centres undefined)
2. Oc1c2c(nc3ccccc13)C(c1ccc3c(c1)CCO3)N(c1ncc(-c3ccncc3)cn1)C2 (centres undefined)
3. Oc1c2c(nc3ccccc13)C(c1ccc3c(c1)OCO3)N(c1ncc(-c3cccnc3)cn1)C2 (centres undefined)
4. Oc1c2c(nc3ccccc13)C(c1ccc3c(c1)CCO3)N(c1ncc(-c3cccnc3)cn1)C2 (centres undefined)

Ans:
["> 2500", "> 2500", "> 2500", "> 2500"]

// input: 5 compounds below; output: Selectivity for each
1. Oc1c2c(nc3ccccc13)C(c1ccc3c(c1)CCO3)N(c1ncccn1)C2 (centres undefined)
2. Oc1c2c(nc3ccccc13)C(c1ccc3c(c1)CCO3)N(c1ccc(-c3cncn3Cc3ccccc3)cn1)C2 (centres undefined)
3. Oc1c2c(nc3ccccc13)C(c1ccc3occc3c1)N(c1ncc(-c3ccccn3)cn1)C2 (centres undefined)
4. Oc1c2c(nc3ccccc13)C(c1ccc3c(c1)CCO3)N(c1ccc(-c3ccccn3)nc1)C2 (centres undefined)
5. Oc1c2c(nc3ccccc13)C(c1ccc3c(c1)CCO3)N(c1ccc(-n3ccnc3)cc1)C2 (centres undefined)

Ans:
1. > 2500
2. > 2500
3. 2500
4. > 2500
5. > 2500

---

assay: Oral bioavailability in monkey was determined; assay type: ADME, organism-based; details: cercopithecidae, in vivo
Result Type: bioavailability (%)
Give bare numbers, in %.

Q: Which bioavailability value belongs to Oc1c2c(nc3ccccc13)[C@@H](c1ccc3c(c1)CCO3)N(c1ccccn1)C2 ?
Ans: 40

---

assay: Oral bioavailability in rat; assay type: ADME, organism-based; conditions: in vivo
Result Type: bioavailability (%)
Numbers only, in %.

Q: Which bioavailability value belongs to O=c1c2c([nH]c3ccccc13)C(c1ccc3c(c1)CCO3)N(c1ccccn1)C2 (stereo unspecified) ?
Ans: 38

---

tested on: RFL-6; assay: Ratio of inhibitory constant against rod phosphodiesterase 6 and phosphodiesterase 5 in rat fetal lung fibroblast (RFL-6) cells; format: cell-based
// assign class 1 if Selectivity falls strictly below 100, else class 0 (ties count as class 0)

- Molecule: "Oc1c2c(nc3ccccc13)C(c1ccc3c(c1)CCO3)N(c1ccc(-c3ccccn3)cn1)C2 (stereo unspecified)"
  Tested Target: "RFL-6"
  Answer Label: "class 1"
- Molecule: "Oc1c2c(nc3ccccc13)C(c1ccc3c(c1)CCO3)N(c1ccccn1)C2 (stereo unspecified)"
  Tested Target: "RFL-6"
  Answer Label: "class 0"
- Molecule: "Cc1ncc(-c2cnc(N3Cc4c(nc5ccccc5c4O)C3c3ccc4c(c3)CCO4)nc2)n1C (stereo unspecified)"
  Tested Target: "RFL-6"
  Answer Label: "class 0"
- Molecule: "Oc1c2c(nc3ccccc13)[C@@H](c1ccc3c(c1)CCO3)N(c1ccccn1)C2"
  Tested Target: "RFL-6"
  Answer Label: "class 0"
- Molecule: "Oc1c2c(nc3ccccc13)C(c1ccc3c(c1)CCO3)N(c1ccc(-c3cncn3Cc3ccccc3)cn1)C2 (stereo unspecified)"
  Tested Target: "RFL-6"
  Answer Label: "class 1"
- Molecule: "Oc1c2c(nc3ccccc13)C(c1ccc3c(c1)CCO3)N(c1ncc(-c3cccnc3)cn1)C2 (stereo unspecified)"
  Tested Target: "RFL-6"
  Answer Label: "class 0"

Q: In the record for Oc1c2c(nc3ccccc13)C(c1ccc3occc3c1)N(c1ncc(-c3ccccn3)cn1)C2 (stereo unspecified) , is Selectivity less than 100?
Ans: class 1

Q: Request: Cn1cncc1-c1ccc(N2Cc3c(nc4ccccc4c3O)C2c2ccc3c(c2)CCO3)nc1 (stereo unspecified)
Ans: class 1

Q: Request: Oc1c2c(nc3ccccc13)C(c1ccc3c(c1)CCO3)N(c1ncc(-c3ccncc3)cn1)C2 (stereo unspecified)
Ans: class 1
